tested on: XAGE3
method description: pooled miR-30 sensor sort-seq; sequence = guide strand
run conditions: shRNA
sensor-assay potency score (higher = more potent) below -0.9 gives false (0); sensor-assay potency score (higher = more potent) at or above it gives true (1).

Before answering, review these 3 worked examples.
sequence entry | label
TTTCAGTTGGTGGTTCCTCTTG | true (1)
TCTCCTGACCAGGTGCAGGATC | true (1)
TCTTCTTCTCTCTCCTGACCAG | false (0)

IN: Reported sensor-assay potency score (higher = more potent) reaches at least -0.9 for "TGATCTTCTTCTCTCTCCTGAC" ?
OUT: false (0)

* * *

tested on: TCERG1
method description: pooled miR-30 sensor sort-seq; sequence = guide strand
run conditions: shRNA
sensor-assay potency score (higher = more potent) below 0.4 gives NO; sensor-assay potency score (higher = more potent) at or above it gives YES.

sequence entry | tested on | label
TACATACTGATCAAACACCTGT | TCERG1 | NO
TTGATGAACTATCTACTGCTTT | TCERG1 | NO
TTGCTTTGAATCTTGAATCTTT | TCERG1 | YES
TATCAGACCATGACACATCTGA | TCERG1 | NO
TTCTGATTGCTGAATAACCTTA | TCERG1 | NO
TTATTATCGTCTCTCTTCCGTT | TCERG1 | NO
TGAATCTTGAATCTTTAGCATG | TCERG1 | NO

API: the following record is the query input.
IN: Reported sensor-assay potency score (higher = more potent) reaches at least 0.4 for "TTTATTATCGTCTCTCTTCCGT" ?
OUT: YES

Just for reference, the OligoGym collection is where these values come from.
